biological target: Cyclin-dependent kinase 2 (Homo sapiens) (UniProt P24941); details: at 1 µM;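 further: mean inhibition measured against the CDK2/cyclin E complex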
Reported inhibition values are given for each entry in this list.
MEASUREMENT LABEL: inhibition (%)

{"COMPOUND": "CC1=C(C(=O)Nc2cc(Cl)c3[nH]ncc3c2)C(c2ccc(C(F)(F)F)cc2)CC(=O)N1 (centres undefined)", "MEASUREMENT LABEL": "inhibition", "UNIT OF MEASUREMENT": "%", "OBSERVED": 7.57}
{"COMPOUND": "Clc1ccc(-c2nn3ncccc3c2-c2ccnc(Nc3ccccc3)n2)cc1", "MEASUREMENT LABEL": "inhibition", "UNIT OF MEASUREMENT": "%", "OBSERVED": 2.48}
{"COMPOUND": "NS(=O)(=O)c1ccc(N/N=C2\\C(=O)Nc3ccc4ncccc4c32)cc1", "MEASUREMENT LABEL": "inhibition", "UNIT OF MEASUREMENT": "%", "OBSERVED": 84.3}
{"COMPOUND": "COc1cc2c(cc1Nc1nc(Nc3ccsc3C(N)=O)c3cc[nH]c3n1)N(C(=O)CN(C)C)CCC2(C)C", "MEASUREMENT LABEL": "inhibition", "UNIT OF MEASUREMENT": "%", "OBSERVED": 10.2}
{"COMPOUND": "CCNC(=O)O[C@H]1CN[C@H](C#Cc2cc3ncnc(Nc4ccc(OCc5cccc(F)c5)c(Cl)c4)c3s2)C1", "MEASUREMENT LABEL": "inhibition", "UNIT OF MEASUREMENT": "%", "OBSERVED": 3.62}
{"COMPOUND": "O=S(=O)(CCNCc1ccc(-c2ccc3ncnc(Nc4ccc(OCc5cccc(F)c5)c(Cl)c4)c3c2)o1)c1ccccc1", "MEASUREMENT LABEL": "inhibition", "UNIT OF MEASUREMENT": "%", "OBSERVED": 5.45}
{"COMPOUND": "NS(=O)(=O)c1ccc(Nc2ncc(-c3ccccc3)o2)cc1", "MEASUREMENT LABEL": "inhibition", "UNIT OF MEASUREMENT": "%", "OBSERVED": 86.8}
{"COMPOUND": "CS(=O)(=O)CCNCc1coc(-c2ccc3ncnc(Nc4ccc(OCc5ccccc5)cc4)c3c2)c1", "MEASUREMENT LABEL": "inhibition", "UNIT OF MEASUREMENT": "%", "OBSERVED": 3.24}
{"COMPOUND": "Cc1ccc(O)cc1Nc1ccnc2cc(-c3ccccn3)ccc12", "MEASUREMENT LABEL": "inhibition", "UNIT OF MEASUREMENT": "%", "OBSERVED": 4.84}
